- TARGET UNDER TEST: Delta-type opioid receptor (Rattus norvegicus, UniProt P33533)
- Sequence (P33533 whole entry): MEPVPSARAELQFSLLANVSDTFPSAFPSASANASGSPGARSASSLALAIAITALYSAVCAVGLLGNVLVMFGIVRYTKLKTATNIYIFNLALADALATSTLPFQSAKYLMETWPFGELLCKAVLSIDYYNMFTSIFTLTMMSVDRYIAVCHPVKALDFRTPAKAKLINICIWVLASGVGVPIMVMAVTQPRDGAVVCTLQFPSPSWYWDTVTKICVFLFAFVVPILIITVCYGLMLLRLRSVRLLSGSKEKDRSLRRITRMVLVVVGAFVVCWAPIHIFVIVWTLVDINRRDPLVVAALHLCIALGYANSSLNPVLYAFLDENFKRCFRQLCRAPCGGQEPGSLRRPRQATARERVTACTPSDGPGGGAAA
- TEST SUMMARY: Inhibitory activity against forskolin-stimulated cAMP production in chinese hamster ovary cells expressing Opioid receptor delta 1
- Assay type: functional, cell-based, CHO
pIC50: −log10 of the molar value. Starred links: 1 amine or outer side, 2 acyl side, 3 side chain; linkers in the order of their positions; H or OH if unused. Non-standard residues stand in square brackets, D forms with d. Residues, ends and D or L forms follow the SMILES beside them. X1 = O=C([C@@]1(N[*:1])CCCC[C@@H]1O)[*:2]; X2 = O=C([C@@]1(N[*:1])CCCC[C@H]1O)[*:2]; X3 = O=C([C@@]1(N[*:1])CCC[C@@H]1O)[*:2]; X4 = O=C([C@]1(N[*:1])CCC[C@H]1O)[*:2]
Decision: pIC50 compared against 9; not below it gives 1, below it gives 0.

Ask: Decide: pIC50 of CC(C)C[C@H](NC(=O)[C@H](Cc1ccccc1)NC(=O)CNC(=O)[C@@]1(NC(=O)[C@@H](N)Cc2ccc(O)cc2)CCC[C@@H]1O)C(=O)O (H-Y[X3]GFL-OH) >= 9?
Result: 1

Ask: Could you please find out whether CC(C)C[C@H](NC(=O)[C@H](Cc1ccccc1)NC(=O)CNC(=O)[C@]1(NC(=O)[C@@H](N)Cc2ccc(O)cc2)CCC[C@H]1O)C(=O)O (H-Y[X4]GFL-OH) has pIC50 that meets 9 or exceeds it?
Result: 0

Ask: Is pIC50 for CC(C)C[C@H](NC(=O)[C@H](Cc1ccccc1)NC(=O)CNC(=O)[C@@]1(NC(=O)[C@@H](N)Cc2ccc(O)cc2)CCCC[C@@H]1O)C(=O)O (H-Y[X1]GFL-OH) at or above 9?
Result: 1

Ask: Decide: pIC50 of CC(C)C[C@H](NC(=O)[C@H](Cc1ccccc1)NC(=O)CNC(=O)[C@@]1(NC(=O)[C@@H](N)Cc2ccc(O)cc2)CCCC[C@H]1O)C(=O)O (H-Y[X2]GFL-OH) >= 9?
Result: 0

Ask: pIC50 >= 9 for CC(C)C[C@H](NC(=O)[C@H](Cc1ccccc1)NC(=O)CNC(=O)C(C)(C)NC(=O)[C@@H](N)Cc1ccc(O)cc1)C(=O)O (single isomer, unassigned) ?
Result: 0

# credit: ChEMBL document CHEMBL1130911
